assay: Bioavailability in rat; assay type: ADME, organism-based; conditions: in vivo
Reported Metric: bioavailability

CS(=O)(=O)C1(c2cc(N3CCOCC3)nc(-c3cccc4[nH]ccc34)n2)CC1 | 70%

---

test: AUC in Han-Wistar rat at 4 umol/kg, po; assay type: ADME, organism-based; settings: plasma
Measured AUC accompanies every entry in the list below.
Reported Metric: AUC

CC(C)(c1cc(N2CCOCC2)nc(-c2cccc3[nH]ccc23)n1)S(C)(=O)=O | 0.76 µM·h
CS(=O)(=O)C1(c2cc(N3CCOCC3)nc(-c3cccc4[nH]ccc34)n2)CCOCC1 | 0.32 µM·h
CS(=O)(=O)C1(c2cc(N3CCOCC3)nc(-c3cccc4[nH]ccc34)n2)CCNCC1 | 0.04 µM·h
CS(=O)(=O)C1(c2cc(N3CCOCC3)nc(-c3cccc4[nH]ccc34)n2)CC1 | 3.1 µM·h

---

assay: Aqueous solubility of the compound at pH 7.4; type: physicochemical; details: buffer
Reported Metric: solubility (µM)

Cc1ccc2[nH]ccc2c1-c1nc(N2CCOCC2)cc(C2(S(C)(=O)=O)CC2)n1 | 96

---

biological target: Serine/threonine-protein kinase ATR (Homo sapiens)
Sequence (Q13535 whole entry): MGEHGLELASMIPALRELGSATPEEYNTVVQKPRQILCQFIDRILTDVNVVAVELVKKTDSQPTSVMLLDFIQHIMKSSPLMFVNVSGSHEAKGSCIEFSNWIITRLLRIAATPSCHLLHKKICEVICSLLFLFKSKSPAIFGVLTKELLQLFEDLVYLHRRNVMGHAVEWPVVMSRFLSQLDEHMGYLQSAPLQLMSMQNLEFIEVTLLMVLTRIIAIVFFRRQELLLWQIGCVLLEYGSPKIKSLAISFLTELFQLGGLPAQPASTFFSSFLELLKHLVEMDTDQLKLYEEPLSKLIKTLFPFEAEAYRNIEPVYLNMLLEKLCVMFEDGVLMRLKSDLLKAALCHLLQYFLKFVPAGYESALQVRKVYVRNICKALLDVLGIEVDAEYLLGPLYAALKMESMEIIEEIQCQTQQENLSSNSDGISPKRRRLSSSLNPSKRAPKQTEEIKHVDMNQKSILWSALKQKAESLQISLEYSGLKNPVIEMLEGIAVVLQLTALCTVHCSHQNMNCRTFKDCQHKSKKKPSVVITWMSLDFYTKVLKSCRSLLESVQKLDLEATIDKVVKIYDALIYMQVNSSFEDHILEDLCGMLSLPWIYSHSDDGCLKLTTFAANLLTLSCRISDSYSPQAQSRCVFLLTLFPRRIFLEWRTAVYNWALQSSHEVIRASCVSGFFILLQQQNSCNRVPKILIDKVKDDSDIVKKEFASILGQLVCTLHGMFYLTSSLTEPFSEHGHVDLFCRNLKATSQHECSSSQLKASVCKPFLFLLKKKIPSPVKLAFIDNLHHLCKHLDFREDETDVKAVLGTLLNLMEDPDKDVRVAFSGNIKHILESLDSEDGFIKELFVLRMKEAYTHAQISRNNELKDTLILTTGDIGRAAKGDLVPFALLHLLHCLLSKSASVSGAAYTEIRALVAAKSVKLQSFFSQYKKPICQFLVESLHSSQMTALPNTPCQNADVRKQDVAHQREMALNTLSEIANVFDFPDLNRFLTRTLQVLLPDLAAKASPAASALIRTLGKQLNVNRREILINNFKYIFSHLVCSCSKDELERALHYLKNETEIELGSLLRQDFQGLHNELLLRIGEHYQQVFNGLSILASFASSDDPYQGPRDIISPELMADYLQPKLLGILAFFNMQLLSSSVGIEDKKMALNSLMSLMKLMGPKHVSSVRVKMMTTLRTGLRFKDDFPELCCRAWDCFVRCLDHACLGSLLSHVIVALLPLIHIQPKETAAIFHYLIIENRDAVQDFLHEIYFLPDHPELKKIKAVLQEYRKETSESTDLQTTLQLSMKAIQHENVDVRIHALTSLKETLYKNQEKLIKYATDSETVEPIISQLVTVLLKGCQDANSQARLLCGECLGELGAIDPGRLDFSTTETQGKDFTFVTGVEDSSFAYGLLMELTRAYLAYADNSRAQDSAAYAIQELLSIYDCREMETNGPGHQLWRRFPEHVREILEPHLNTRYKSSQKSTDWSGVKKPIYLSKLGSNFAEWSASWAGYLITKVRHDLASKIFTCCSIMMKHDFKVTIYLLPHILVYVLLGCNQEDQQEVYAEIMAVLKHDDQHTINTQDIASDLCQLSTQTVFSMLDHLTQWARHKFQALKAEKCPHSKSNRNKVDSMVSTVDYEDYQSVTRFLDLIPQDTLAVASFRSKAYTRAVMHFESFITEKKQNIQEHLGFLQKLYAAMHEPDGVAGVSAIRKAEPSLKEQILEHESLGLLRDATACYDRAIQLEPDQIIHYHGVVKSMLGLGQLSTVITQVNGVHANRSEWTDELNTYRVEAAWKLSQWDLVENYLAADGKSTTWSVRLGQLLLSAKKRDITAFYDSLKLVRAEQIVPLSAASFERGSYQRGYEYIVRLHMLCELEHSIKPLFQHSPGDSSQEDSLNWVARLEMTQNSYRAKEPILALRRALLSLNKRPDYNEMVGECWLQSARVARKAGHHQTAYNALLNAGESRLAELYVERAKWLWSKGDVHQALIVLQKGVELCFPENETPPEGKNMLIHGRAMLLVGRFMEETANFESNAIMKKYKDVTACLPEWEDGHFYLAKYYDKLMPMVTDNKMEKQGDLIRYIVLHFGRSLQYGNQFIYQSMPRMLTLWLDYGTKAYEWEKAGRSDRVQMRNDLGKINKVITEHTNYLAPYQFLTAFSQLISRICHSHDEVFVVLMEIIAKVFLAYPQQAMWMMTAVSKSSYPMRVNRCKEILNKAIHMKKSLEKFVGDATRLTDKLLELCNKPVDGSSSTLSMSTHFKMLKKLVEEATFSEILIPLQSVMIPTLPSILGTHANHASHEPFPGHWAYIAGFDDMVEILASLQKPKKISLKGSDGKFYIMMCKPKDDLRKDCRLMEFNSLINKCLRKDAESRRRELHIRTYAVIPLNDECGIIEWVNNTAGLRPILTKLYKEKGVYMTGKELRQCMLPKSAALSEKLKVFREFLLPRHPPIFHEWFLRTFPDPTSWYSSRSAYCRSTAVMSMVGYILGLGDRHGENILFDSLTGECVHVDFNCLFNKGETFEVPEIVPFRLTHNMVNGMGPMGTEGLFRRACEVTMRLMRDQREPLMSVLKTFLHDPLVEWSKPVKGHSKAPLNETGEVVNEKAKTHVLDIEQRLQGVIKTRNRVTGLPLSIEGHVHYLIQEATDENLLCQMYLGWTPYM
Sorting guide: entries reporting IC50 beneath 40 nM go in the Met pile, the rest go in the Not met pile.

Cc1cc2c(-c3nc(N4CCOCC4)cc(C4(S(C)(=O)=O)CC4)n3)cccc2[nH]1 | Met
CN(C)C(=O)c1cc(-c2nc(N3CCOCC3)cc(C3(S(C)(=O)=O)CC3)n2)c2cc[nH]c2c1 | Not met
CS(=O)(=O)Cc1cc(N2CCOCC2)nc(-c2ccc3cc[nH]c3c2)n1 | Not met
CS(=O)(=O)C1(c2cc(N3CCOCC3)nc(-c3cccc4[nH]ccc34)n2)CCOCC1 | Met
O=S(=O)(c1ccccc1)C1(c2cc(N3CCOCC3)nc(-c3cccc4[nH]ccc34)n2)CC1 | Met
O=S(=O)(C1CCNCC1)C1(c2cc(N3CCOCC3)nc(-c3cccc4[nH]ccc34)n2)CC1 | Not met
CC(C)(c1cc(N2CCOCC2)nc(-c2cccc3[nH]ccc23)n1)S(C)(=O)=O | Met
CS(=O)(=O)C1(c2cc(N3CCOCC3)nc(-c3cccc4[nH]ncc34)n2)CC1 | Not met
CS(=O)(=O)Cc1cc(N2CCOCC2)nc(-c2ccc3[nH]ccc3c2)n1 | Not met
Cc1cc(-c2nc(N3CCOCC3)cc(C3(S(C)(=O)=O)CC3)n2)c2cc[nH]c2c1 | Met
CS(=O)(=O)C1(c2cc(N3CCOCC3)nc(-c3cccc4[nH]ccc34)n2)CCNCC1 | Met
CS(=O)(=O)Cc1cc(N2CCOCC2)nc(-c2cccc3cc[nH]c23)n1 | Not met
CS(=O)(=O)C1(c2cc(N3CCOCC3)nc(-c3cccc4[nH]c(C(N)=O)cc34)n2)CC1 | Not met
O=S(=O)(c1ccccn1)C1(c2cc(N3CCOCC3)nc(-c3cccc4[nH]ccc34)n2)CC1 | Met
CS(=O)(=O)C1(c2cc(N3CCOCC3)nc(-c3cccc4[nH]c(C#N)cc34)n2)CC1 | Not met
O=S(=O)(C1CCOCC1)C1(c2cc(N3CCOCC3)nc(-c3cccc4[nH]ccc34)n2)CC1 | Met
Cc1c[nH]c2cccc(-c3nc(N4CCOCC4)cc(C4(S(C)(=O)=O)CC4)n3)c12 | Not met
CC[C@@H]1COCCN1c1cc(C2(S(C)(=O)=O)CC2)nc(-c2cccc3[nH]ccc23)n1 | Not met

The measured values listed here are drawn from ChEMBL document CHEMBL2321758.
